- TARGET_ENTITY: T1, recombinant human IL-6 (human, UniProt P05231 30-212)
- T1 construct: Flowed in solution over the captured antibodies
- ASSAY_METHOD_TEXT: SPR (Biacore), supernatant IgG on Protein A, 25 C
ENDPOINT_LABEL: pKd
The quantity pKd is defined as the negative base-10 logarithm of the molar concentration.

Input: Reported pKd, binder anti-IL-6 antibody, heavy chain T58V, light chain WT (antibody, IgG1, V domains shown, Full IgG1 tested; V domains derived as in m2) VH: EVQLVESGGGLVQPGGSLRLSCAASGFTFSPFAMSWVRQAPGKGLEWVAKISPGGSWVYYSDTVTGRFTFSLDTSKSTAYLQMNSLRAEDTAVYYCARQLWGYYALDIWGQGTLVTVSS VL: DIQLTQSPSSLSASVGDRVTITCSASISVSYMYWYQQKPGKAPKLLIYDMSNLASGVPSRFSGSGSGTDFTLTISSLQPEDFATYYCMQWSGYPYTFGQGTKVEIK : ____
Output: 9.65

Input: Reported pKd, binder anti-IL-6 antibody, heavy chain G26S, light chain WT (antibody, IgG1, V domains shown, Full IgG1 tested; V domains derived as in m2) VH: EVQLVESGGGLVQPGGSLRLSCAASSFTFSPFAMSWVRQAPGKGLEWVAKISPGGSWTYYSDTVTGRFTFSLDTSKSTAYLQMNSLRAEDTAVYYCARQLWGYYALDIWGQGTLVTVSS VL: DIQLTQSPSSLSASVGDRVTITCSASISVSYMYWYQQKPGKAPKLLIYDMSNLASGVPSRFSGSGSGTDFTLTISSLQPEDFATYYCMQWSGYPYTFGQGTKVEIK : ____
Output: 9.68

Input: Reported pKd, binder anti-IL-6 antibody, heavy chain R98G, light chain WT (antibody, IgG1, V domains shown, Full IgG1 tested; V domains derived as in m2) VH: EVQLVESGGGLVQPGGSLRLSCAASGFTFSPFAMSWVRQAPGKGLEWVAKISPGGSWTYYSDTVTGRFTFSLDTSKSTAYLQMNSLRAEDTAVYYCAGQLWGYYALDIWGQGTLVTVSS VL: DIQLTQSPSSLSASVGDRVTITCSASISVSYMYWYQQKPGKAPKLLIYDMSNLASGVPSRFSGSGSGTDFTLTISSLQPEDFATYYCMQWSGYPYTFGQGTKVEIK : ____
Output: 8.85
